Where do the numbers come from? From patent US20110152314A1.

- method: Phase I study, pharmacokinetic parameters after oral single dose and daily dose for 7 days
- Format: in vivo, human
- experimental_parameters: human, in vivo; repeated dose (7 days) 80 mg daily, oral; read-out: T½ elimination half-life (converted)
observed_property: half-life at 7 days (min)
Please respond with the number in min and leave the unit unwritten.

[in] Given the compound COc1ccc2[nH]c([S+]([O-])Cc3ncc(C)c(OC)c3C)nc2n1 (stereo not shown) , what is its reported half-life at 7 days?
[out] 552

---

- method: Phase I study, pharmacokinetic parameters after oral single dose and daily dose for 7 days
- Format: in vivo, human
- experimental_parameters: human, in vivo; repeated dose (7 days) 20 mg daily, oral; read-out: T½ elimination half-life (converted)
observed_property: half-life at 7 days
Kindly report the value followed by its unit.

[in] Given the molecule COc1ccc2[nH]c([S+]([O-])Cc3ncc(C)c(OC)c3C)nc2n1 (stereo not shown) , what is its reported half-life at 7 days?
[out] 8 h
